Quick list: growth inhibition per entry.
assay: NCI Yeast Anticancer Drug Screen. Data for the rad50 strain (AID 155);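 also: 0% = growth of vehicle-only cultures of the same strain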; settings: S. cerevisiae rad50 strain growth inhibition; at 50.0 µM (retest, dose inferred, filed as 5.0); hits give high values
About 79,000 compounds went through this panel and 15% of them were active in at least one assay; those are over-represented in the sample as a whole.
measured-endpoint: growth inhibition (%)

- molecule: "CN1CCN(CC(C(=O)O)(c2ccccc2)c2ccccc2)CC1"
  measured-endpoint: "growth inhibition"
  display-unit: "%"
  recorded-number: 2
- molecule: "O=C(/C=C(/c1ccccc1)P(=O)(c1ccccc1)c1ccccc1)c1ccccc1"
  measured-endpoint: "growth inhibition"
  display-unit: "%"
  recorded-number: 97
- molecule: "CCNC(=S)N/N=C/c1ccccn1"
  measured-endpoint: "growth inhibition"
  display-unit: "%"
  recorded-number: 95
- molecule: "CN(C)C(=S)NC(=S)Nc1ccc2ccccc2c1"
  measured-endpoint: "growth inhibition"
  display-unit: "%"
  recorded-number: 88
- molecule: "Cc1ccc(O)c(-c2cscn2)c1"
  measured-endpoint: "growth inhibition"
  display-unit: "%"
  recorded-number: 68
- molecule: "O=C(Cn1nnc2ccccc21)N1CCN(c2ccccc2)CC1"
  measured-endpoint: "growth inhibition"
  display-unit: "%"
  recorded-number: 3
- molecule: "CC(=O)NC1=C(Sc2ccc(C)cc2)C(=O)c2ccccc2C1=O"
  measured-endpoint: "growth inhibition"
  display-unit: "%"
  recorded-number: 98
- molecule: "CCOc1ccccc1C(=O)Oc1cccc(C)c1"
  measured-endpoint: "growth inhibition"
  display-unit: "%"
  recorded-number: -1
- molecule: "CC(C(=O)N1C(=O)N(C(=O)C(C)C(O)c2ccccc2)C(c2ccccc2)C1c1ccccc1)C(O)c1ccccc1 (configuration not stated)"
  measured-endpoint: "growth inhibition"
  display-unit: "%"
  recorded-number: 91
- molecule: "CCCCCCCCCCNCCSSCCNC(C)=O"
  measured-endpoint: "growth inhibition"
  display-unit: "%"
  recorded-number: 98
- molecule: "CCn1c2ccccc2n2c(=O)cc(-c3ccccc3)c(C#N)c12"
  measured-endpoint: "growth inhibition"
  display-unit: "%"
  recorded-number: 2
- molecule: "N=Nc1c(OC(=O)Nc2cccc(Cl)c2)[nH]c2ccccc12"
  measured-endpoint: "growth inhibition"
  display-unit: "%"
  recorded-number: 99
